Data origin, for the record: patent US20040086901A1

Tested on: NIH3T3 cells overexpressing caspase-1
Assay: MTT cell viability, caspase-1 overexpressing cells vs parental line
Type: cell-based, mouse
Details: caspase-1 high-expressing cells / parental cell line, 3 to 4 days
So basically: logarithmic value of ratio of IC40 values at 0.5 or higher? That is Condition met. Lower than 0.5? That is Condition not met.

// inclusive: logarithmic value of ratio of IC40 values at least 0.5? input: C=C[C@@]1(C)CC(=O)[C@]2(O)[C@@]3(C)[C@@H](O)CCC(C)(C)[C@@H]3[C@H](O)[C@H](OC(C)=O)[C@@]2(C)O1
Condition not met

// inclusive: logarithmic value of ratio of IC40 values at least 0.5? input: C[C@@H]1O[C@@H](O[C@H]2C[C@@H](O)[C@]3(CO)[C@H]4[C@H](O)C[C@]5(C)[C@@H](C6=CC(=O)OC6)CC[C@]5(O)[C@@H]4CC[C@]3(O)C2)[C@H](O)[C@H](O)[C@H]1O
Condition met

// inclusive: logarithmic value of ratio of IC40 values at least 0.5? input: CN(C)CCCn1cc(C2=C(c3c[nH]c4ccccc34)C(=O)NC2=O)c2ccccc21 [GF109203X]
Condition not met

// inclusive: logarithmic value of ratio of IC40 values at least 0.5? input: C=C[C@]1(C)CC[C@@H](C(=C)C)C[C@H]1C(=C)C
Condition not met

// inclusive: logarithmic value of ratio of IC40 values at least 0.5? input: C=CC1=C(C)c2cc3[n-]c(cc4nc(cc5[n-]c(cc1n2)c(C)c5CCC(=O)O)C(CCC(=O)O)=C4C)c(C)c3C=C.[Cl-].[Cl-].[Sn+4]
Condition not met

// inclusive: logarithmic value of ratio of IC40 values at least 0.5? input: COc1ccc2c(c1)CC[C@@H]1[C@@H]2CC[C@]2(C)[C@@H](NCCCCCCN3C(=O)C=CC3=O)CC[C@@H]12
Condition met

* * *

Test system: NIH3T3 cells overexpressing PKCepsilon-KN
Assay: MTT cell viability, PKCepsilon-KN overexpressing cells vs parental line
Assay type: cell-based, mouse
Details: PKCepsilon-KN (first of two lines) high-expressing cells / parental cell line, 3 to 4 days
Non-standard residues stand in square brackets, D forms with d. Residues, ends and D or L forms follow the SMILES beside them. Nle = CCCC[C@H](N)C(=O)O
So basically: logarithmic value of ratio of IC40 values at -0.1 or higher? That is Criterion met. Lower than -0.1? That is Criterion not met.

// inclusive: logarithmic value of ratio of IC40 values at least -0.1? input: CCCC[C@@H](C)/C=C(C)/C=C(\C)C(=O)NC1=C[C@@](O)(/C=C/C=C/C=C/C(=O)NC2=C(O)CCC2=O)[C@@H]2O[C@@H]2C1=O [Manumycin, manumycin]
Criterion not met

// inclusive: logarithmic value of ratio of IC40 values at least -0.1? input: COc1ccc2c(c1)CC[C@@H]1[C@@H]2CC[C@]2(C)[C@@H](NCCCCCCN3C(=O)C=CC3=O)CC[C@@H]12 [U73122]
Criterion not met

// inclusive: logarithmic value of ratio of IC40 values at least -0.1? input: COC[C@H]1OC(=O)c2coc3c2[C@@]1(C)C1=C(C3=O)[C@@H]2CCC(=O)[C@@]2(C)C[C@H]1OC(C)=O [Wortmannin, wortmannin]
Criterion not met

// inclusive: logarithmic value of ratio of IC40 values at least -0.1? input: C=C1[C@@H](O)[C@@H]2O[C@]3(CC[C@H](/C=C/[C@@H](C)[C@@H]4CC(C)=C[C@@]5(O[C@H](C[C@@](C)(O)C(=O)O)CC[C@H]5O)O4)O3)CC[C@H]2O[C@@H]1[C@@H](O)C[C@H](C)[C@H]1O[C@@]2(CCCCO2)CC[C@H]1C [OA, okadaic acid]
Criterion met

// inclusive: logarithmic value of ratio of IC40 values at least -0.1? input: C[C@@H]1C[C@@H]([C@H](O)CC2CC(=O)NC(=O)C2)C(=O)[C@@H](C)C1 [CHX, cycloheximide]
Criterion met

// inclusive: logarithmic value of ratio of IC40 values at least -0.1? input: CNc1ccc2oc(C[C@H]3O[C@@]4(CC[C@H]3C)O[C@H]([C@H](C)C(=O)c3ccc[nH]3)[C@H](C)C[C@H]4C)nc2c1C(=O)O [A23187]
Criterion not met

// inclusive: logarithmic value of ratio of IC40 values at least -0.1? input: C[C@@H]1O[C@@H](O[C@H]2C[C@@H](O)[C@]3(CO)[C@H]4[C@H](O)C[C@]5(C)[C@@H](C6=CC(=O)OC6)CC[C@]5(O)[C@@H]4CC[C@]3(O)C2)[C@H](O)[C@H](O)[C@H]1O [Ouabain, ouabain]
Criterion not met

// inclusive: logarithmic value of ratio of IC40 values at least -0.1? input: CO[C@H]1[C@@H](OC)C[C@H](C)[C@@H](OC)C2=CC(=O)C=C(NC(=O)/C(C)=C/C=C\[C@H](OC)[C@@H](OC(N)=O)/C(C)=C/[C@@H]1C)C2=O [HMA, herbimycin A]
Criterion not met

// inclusive: logarithmic value of ratio of IC40 values at least -0.1? input: CCCC[C@@H](C=O)NC(=O)[C@H](CC(C)C)NC(=O)[C@H](CC(C)C)NC(C)=O [ALLN] (Ac-Leu-Leu-[Nle]-aldehyde)
Criterion met

// inclusive: logarithmic value of ratio of IC40 values at least -0.1? input: Nc1nc2nc[nH]c2c(=S)[nH]1 [6-TG, 6-thioguanine]
Criterion met

// inclusive: logarithmic value of ratio of IC40 values at least -0.1? input: CN(C)CCCn1cc(C2=C(c3c[nH]c4ccccc34)C(=O)NC2=O)c2ccccc21 [GF109203X]
Criterion not met
